- experimental.target: Induced myeloid leukemia cell differentiation protein Mcl-1 (Homo sapiens)
- measurement.description: Inhibition of Mcl-1 (unknown origin)/Bid interaction preincubated for 5 mins followed by fluorescein-labeled peptide addition and measured after 10 mins by fluorescein-labeled peptide displacement based fluorescence polarization assay
Please go through the items and note down their Ki.

Solved cases (3 shown):
- CONC(=O)[C@H]1CC=C(CCC=C(C)C)C[C@@H]1c1ccccc1: 16.6 µM
- CC(C)=CCCC1=CC[C@@H](C(N)=O)[C@H](c2ccccc2)C1: > 33 µM
- CONC(=O)[C@@H]1CC=C(CCC=C(C)C)C[C@H]1c1ccccc1: > 33 µM

Below are some compounds; for each one, tell me its Ki.
1. CC(C)=CCCC1=CC[C@@H](C(=O)N(C)C)[C@H](c2ccccc2)C1
2. COC(=O)c1ccc(NC(=O)[C@H]2CC=C(CCC=C(C)C)C[C@@H]2c2ccccc2)cc1
3. COC(=O)CCNC(=O)[C@H]1CC=C(CCC=C(C)C)C[C@@H]1c1ccccc1

["> 33 µM", "> 33 µM", "5.5 µM"]

###

- experimental.target: Induced myeloid leukemia cell differentiation protein Mcl-1 (Homo sapiens, UniProt Q07820)
- Sequence (Q07820 whole entry): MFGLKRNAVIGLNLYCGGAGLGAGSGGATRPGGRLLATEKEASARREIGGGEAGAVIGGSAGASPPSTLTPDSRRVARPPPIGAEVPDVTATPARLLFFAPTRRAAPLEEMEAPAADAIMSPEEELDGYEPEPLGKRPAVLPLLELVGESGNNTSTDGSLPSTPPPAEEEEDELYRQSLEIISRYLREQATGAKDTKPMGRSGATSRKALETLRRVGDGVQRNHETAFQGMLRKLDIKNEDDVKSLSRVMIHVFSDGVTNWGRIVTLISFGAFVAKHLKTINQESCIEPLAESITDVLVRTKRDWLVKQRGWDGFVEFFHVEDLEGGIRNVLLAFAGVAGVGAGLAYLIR
- measurement.description: Inhibition of Mcl-1 (unknown origin)/Bid interaction preincubated for 5 mins followed by fluorescein-labeled peptide addition and measured after 10 mins by fluorescein-labeled peptide displacement based fluorescence polarization assay
I'd appreciate it if you could supply pKi values for the items below.
Give bare numbers, as −log10 of the molar value.

* CC(C)=CCCC1=CC[C@H](C(=O)N(C)O)[C@@H](c2ccccc2)C1 | 5.14
* COC(=O)CCNC(=O)[C@@H]1CC=C(CCC=C(C)C)C[C@H]1c1ccccc1 | 4.82
* CC(C)=CCCC1=CC[C@H](C(=O)N(C)C)[C@@H](c2ccccc2)C1 | 5.27

Give pKi for each listed item.
1. CON(C)C(=O)[C@@H]1CC2=C(CCCC2(C)C)C[C@H]1c1ccccc1
2. CON(C)C(=O)[C@H]1CC2=C(CCCC2(C)C)C[C@@H]1c1ccccc1
3. CC(C)=CCCC1=CC[C@@H](C(=O)O)[C@H](c2ccccc2)C1
4. CC(C)=CCCC1=CC[C@@H](C(=O)NO)[C@H](c2ccccc2)C1
5. CC(C)=CCCC1=CC[C@H](C(=O)NO)[C@@H](c2ccccc2)C1
6. CC1(C)CCCC2=C1C[C@H](C(=O)O)[C@@H](c1ccccc1)C2
7. CC(C)=CCCC1=CC[C@@H](C(=O)N(C)O)[C@H](c2ccccc2)C1
8. CC(C)=CCCC1=CC[C@H](C(=O)Nc2ccc(C(=O)O)cc2)[C@@H](c2ccccc2)C1

[4.82, 4.72, 5.07, 5.09, 5.14, 5.05, 5.04, 5.07]

Would you be so kind as to report pKi for each listed record?
1. CC(C)=CCCC1=CC[C@H](C(=O)O)[C@@H](c2ccccc2)C1
2. CON(C)C(=O)[C@H]1CC=C(CCC=C(C)C)C[C@@H]1c1ccccc1

[5.40, 6.05]

###

- experimental.target: Bcl-2-like protein 1 (Homo sapiens)
- Sequence (Q07817 whole entry): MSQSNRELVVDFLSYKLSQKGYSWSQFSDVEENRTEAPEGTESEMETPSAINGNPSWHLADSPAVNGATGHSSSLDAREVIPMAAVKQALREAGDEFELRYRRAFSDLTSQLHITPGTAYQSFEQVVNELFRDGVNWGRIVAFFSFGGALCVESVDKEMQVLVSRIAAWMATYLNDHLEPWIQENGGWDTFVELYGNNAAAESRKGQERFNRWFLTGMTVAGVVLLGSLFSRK
- measurement.description: Inhibition of Bcl-xL (unknown origin)/Bak interaction preincubated for 5 mins followed by fluorescein-labeled peptide addition and measured after 10 mins by fluorescein-labeled peptide displacement based fluorescence polarization assay
reported.endpoint: Ki

As a guide, the following entries are already answered.
- CC(C)=CCCC1=CC[C@H](C(=O)Nc2ccc(O)cc2)[C@@H](c2ccccc2)C1: > 23 µM
- CC(C)=CCCC1=CC[C@@H](C(=O)N(C)O)[C@H](c2ccccc2)C1: > 23 µM
- CC(C)=CCCC1=CC[C@@H](C(=O)Nc2ccc(O)cc2)[C@H](c2ccccc2)C1: > 23 µM

Provide each entry's Ki from the list below.
1. CC(C)=CCCC1=CC[C@H](C(N)=O)[C@@H](c2ccccc2)C1
2. CC(C)=CCCC1=CC[C@@H](C(=O)NO)[C@H](c2ccccc2)C1

> 23 µM
17.4 µM

###

For each of the compounds below, state its IC50.
- System: MCF7
- measurement.description: Antiproliferative activity against human MCF7 cells assessed as cell death
- Type: functional, cell-based
One number for each entry, in µM.

Worked examples, 4 compounds total:
• COC(=O)CCNC(=O)[C@H]1CC=C(CCC=C(C)C)C[C@@H]1c1ccccc1 = 96.8
• CC(C)=CCCC1=CC[C@H](C(=O)O)[C@@H](c2ccccc2)C1 = 64.3
• CONC(=O)[C@H]1CC=C(CCC=C(C)C)C[C@@H]1c1ccccc1 = 45.2
• CC(C)=CCCC1=CC[C@H](C(=O)Nc2ccc(O)cc2)[C@@H](c2ccccc2)C1 = 66.7

For the 2 compounds below, give their IC50 values.
1. CON(C)C(=O)[C@H]1CC=C(CCC=C(C)C)C[C@@H]1c1ccccc1
2. CC(C)=CCCC1=CC[C@H](C(=O)NO)[C@@H](c2ccccc2)C1

[42.1, 72.3]

###

- System: A549
- measurement.description: Antiproliferative activity against human A549 cells assessed as cell death
- Assay type: functional, cell-based
reported.endpoint: pIC50
Numbers only, as −log10 of the molar value.

• CC(C)=CCCC1=CC[C@H](C(=O)NO)[C@@H](c2ccccc2)C1 = 4.14
• CONC(=O)[C@H]1CC=C(CCC=C(C)C)C[C@@H]1c1ccccc1 = 4.37
• CC(C)=CCCC1=CC[C@H](C(=O)Nc2ccc(O)cc2)[C@@H](c2ccccc2)C1 = 4.18

Hey, can you go through the list below and give me pIC50 for every item?
1. CCCCCC[C@H]1C(=O)O[C@H](C)[C@H](NC(=O)c2cccc(NC=O)c2O)C(=O)O[C@@H](C)[C@@H]1OC(=O)CC(C)C [ANTIMYCIN A]
2. CC(C)=CCCC1=CC[C@H](C(=O)O)[C@@H](c2ccccc2)C1
3. CON(C)C(=O)[C@H]1CC=C(CCC=C(C)C)C[C@@H]1c1ccccc1

5.19
4.27
4.51

I would be grateful if you could share the reported pIC50 for COC(=O)CCNC(=O)[C@H]1CC=C(CCC=C(C)C)C[C@@H]1c1ccccc1 .
4.06

###

- experimental.target: Apoptosis regulator Bcl-2 (Homo sapiens)
- Sequence (P10415 whole entry): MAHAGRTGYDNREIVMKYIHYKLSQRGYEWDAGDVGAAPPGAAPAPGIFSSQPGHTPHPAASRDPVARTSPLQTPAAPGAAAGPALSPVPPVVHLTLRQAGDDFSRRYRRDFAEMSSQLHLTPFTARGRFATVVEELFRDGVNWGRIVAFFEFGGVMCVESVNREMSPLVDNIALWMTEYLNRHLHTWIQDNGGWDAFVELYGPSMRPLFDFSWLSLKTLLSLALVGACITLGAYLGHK
- measurement.description: Inhibition of Bcl2 (unknown origin)/Bim interaction preincubated for 5 mins followed by fluorescein-labeled peptide addition and measured after 10 mins by fluorescein-labeled peptide displacement based fluorescence polarization assay
Assign Ki to each entry below.

Past entries and their recorded results:
• CC(C)=CCCC1=CC[C@@H](C(=O)NO)[C@H](c2ccccc2)C1 = 0.7 µM
• CC(C)=CCCC1=CC[C@@H](C(=O)N(C)C)[C@H](c2ccccc2)C1 = > 23 µM
• CONC(=O)[C@H]1CC=C(CCC=C(C)C)C[C@@H]1c1ccccc1 = 2.4 µM
• CC(C)=CCCC1=CC[C@@H](C(=O)Nc2ccc(O)cc2)[C@H](c2ccccc2)C1 = > 23 µM
• CC(C)=CCCC1=CC[C@H](C(N)=O)[C@@H](c2ccccc2)C1 = > 23 µM

Hi! Can you tell me Ki for each of these compounds?
1. CC(C)=CCCC1=CC[C@H](C(=O)NO)[C@@H](c2ccccc2)C1
2. CON(C)C(=O)[C@H]1CC=C(CCC=C(C)C)C[C@@H]1c1ccccc1
3. CC(C)=CCCC1=CC[C@@H](C(=O)Nc2ccc(C(=O)O)cc2)[C@H](c2ccccc2)C1
4. CC(C)=CCCC1=CC[C@@H](C(=O)N(C)O)[C@H](c2ccccc2)C1
5. CC(C)=CCCC1=CC[C@H](C(=O)Nc2ccc(C(=O)O)cc2)[C@@H](c2ccccc2)C1
6. CON(C)C(=O)[C@@H]1CC=C(CCC=C(C)C)C[C@H]1c1ccccc1
7. CC(C)=CCCC1=CC[C@H](C(=O)N(C)C)[C@@H](c2ccccc2)C1

["0.6 µM", "0.3 µM", "2.2 µM", "2.3 µM", "> 23 µM", "> 23 µM", "> 23 µM"]

Give measured Ki for every item shown.
1. CON(C)C(=O)[C@@H]1CC2=C(CCCC2(C)C)C[C@H]1c1ccccc1
2. COc1ccc(NC(=O)[C@H]2CC=C(CCC=C(C)C)C[C@@H]2c2ccccc2)cc1
3. CC(C)=CCCC1=CC[C@@H](C(N)=O)[C@H](c2ccccc2)C1

["> 23 µM", "> 23 µM", "> 23 µM"]

Okay, here is my list. What is Ki for each of these?
1. COC(=O)c1ccc(NC(=O)[C@@H]2CC=C(CCC=C(C)C)C[C@H]2c2ccccc2)cc1
2. CC(C)=CCCC1=CC[C@H](C(=O)O)[C@@H](c2ccccc2)C1
3. COC(=O)c1ccc(NC(=O)[C@H]2CC=C(CCC=C(C)C)C[C@@H]2c2ccccc2)cc1
4. COc1ccc(NC(=O)[C@@H]2CC=C(CCC=C(C)C)C[C@H]2c2ccccc2)cc1
5. COC(=O)CCNC(=O)[C@@H]1CC=C(CCC=C(C)C)C[C@H]1c1ccccc1
6. COC(=O)CCNC(=O)[C@H]1CC=C(CCC=C(C)C)C[C@@H]1c1ccccc1
7. CC1(C)CCCC2=C1C[C@H](C(=O)O)[C@@H](c1ccccc1)C2

1. > 23 µM
2. > 23 µM
3. > 23 µM
4. > 23 µM
5. > 23 µM
6. 3.1 µM
7. > 23 µM

Each of the following entries comes with a recorded value; kindly state Ki for each.
1. CONC(=O)[C@@H]1CC=C(CCC=C(C)C)C[C@H]1c1ccccc1
2. CC(C)=CCCC1=CC[C@@H](C(=O)NCCC(=O)O)[C@H](c2ccccc2)C1
3. CC(C)=CCCC1=CC[C@H](C(=O)NCCC(=O)O)[C@@H](c2ccccc2)C1
4. CC1(C)CCCC2=C1C[C@@H](C(=O)O)[C@H](c1ccccc1)C2
5. CC(C)=CCCC1=CC[C@H](C(=O)Nc2ccc(O)cc2)[C@@H](c2ccccc2)C1
6. CC(C)=CCCC1=CC[C@H](C(=O)N(C)O)[C@@H](c2ccccc2)C1

["2.7 µM", "> 23 µM", "> 23 µM", "> 23 µM", "> 23 µM", "2.1 µM"]

Each of the following entries comes with a recorded value; kindly state Ki for each.
1. CON(C)C(=O)[C@H]1CC2=C(CCCC2(C)C)C[C@@H]1c1ccccc1
2. CC(C)=CCCC1=CC[C@@H](C(=O)O)[C@H](c2ccccc2)C1

> 23 µM
> 23 µM

Source listed as ChEMBL document CHEMBL4616621.
